Values from patent US20230203056A1

Sequence of the target: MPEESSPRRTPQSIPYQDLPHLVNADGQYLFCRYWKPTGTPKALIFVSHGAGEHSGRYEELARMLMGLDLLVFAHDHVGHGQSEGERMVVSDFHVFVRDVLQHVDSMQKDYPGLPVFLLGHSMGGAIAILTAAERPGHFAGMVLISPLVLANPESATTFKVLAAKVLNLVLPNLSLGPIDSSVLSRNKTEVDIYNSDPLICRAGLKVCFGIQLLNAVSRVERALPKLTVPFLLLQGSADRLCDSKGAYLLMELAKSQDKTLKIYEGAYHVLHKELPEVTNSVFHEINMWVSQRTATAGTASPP
Listed below: IC50 values for each entry.
Give the number first and the unit second.

Please review the entries below; each comes with its answer.
Compound	IC50
O=C(N1C[C@H]2COc3cn[nH]c3[C@H]2C1)N1CC2(CC(Cc3ccc(F)cc3F)C2)C1 (single isomer, unassigned)	9 nM
O=C(N1CC(OCc2ccc(C(F)(F)F)cc2F)C1)N1C[C@@H]2c3[nH]nnc3CO[C@@H]2C1 (single isomer, unassigned)	1220 nM
O=C(N1CC(c2ccc(C3(C(F)(F)F)CC3)cc2)C1)N1C[C@@H]2COc3cn[nH]c3[C@@H]2C1	13 nM
O=C(N1CC(OCc2ccc(C(F)(F)F)cc2F)C1)N1C[C@@H]2COc3cn[nH]c3[C@@H]2C1 (racemic)	67 nM

As a next step, examine the compound that follows.
Query: Bench note: what IC50 did O=C(N1CC(OCc2ccc(C(F)(F)F)cc2F)C1)N1C[C@@H]2CCc3cn[nH]c3[C@@H]2C1 (racemic) show?
Response: 8 nM
